B1: HEEH_KT_rd6_0007 (parent)
chain: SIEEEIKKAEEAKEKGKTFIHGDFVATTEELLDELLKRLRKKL

variants of: B1; assay: folding stability dG (cDNA display proteolysis); higher = more stable; conditions: PBS, room temperature
endpoint: folding stability dG (kcal/mol)
// note: answer is a bare numeric in kcal/mol

Use these answered entries as a reference point.
K41Q | 1.41
L39F | 0.806
F24A | 0.492
I2E | 0.545

API: the following record is the query input.
(Q) GET /values?readout=folding stability dG&item= "L43K"
(A) 0.822
